- Assay text: in vitro
- Particulars: male, human, primary human osteoblasts
Reported property: viability at 48 h, 25 µM

# viability at 48 h, 25 µM (compound: CSc1nc(Nc2cccc(Cl)c2)c2cnn(CC(Cl)c3ccccc3)c2n1 (stereo not shown) ) is ~80%

====

Would you kindly list melting point for each of these molecules?

[
  {
    "Molecule": "CSc1nc(NCc2ccccc2)c2cnn(CC(Cl)c3ccc(F)cc3)c2n1 (stereo not drawn)",
    "melting point": "152 to 153 °C"
  },
  {
    "Molecule": "CSc1nc(NCCc2ccc(C)cc2)c2cnn(CC(Cl)c3ccccc3)c2n1 (stereo not drawn)",
    "melting point": "99 to 100 °C"
  }
]

# melting point (molecule: CSc1nc(NCCc2cccc(Cl)c2)c2cnn(CC(Cl)c3ccccc3)c2n1 (stereo not drawn) ) is 122 to 123 °C

====

- Experimental target: recombinant human Src (Homo sapiens)
- Sequence (P12931 whole entry): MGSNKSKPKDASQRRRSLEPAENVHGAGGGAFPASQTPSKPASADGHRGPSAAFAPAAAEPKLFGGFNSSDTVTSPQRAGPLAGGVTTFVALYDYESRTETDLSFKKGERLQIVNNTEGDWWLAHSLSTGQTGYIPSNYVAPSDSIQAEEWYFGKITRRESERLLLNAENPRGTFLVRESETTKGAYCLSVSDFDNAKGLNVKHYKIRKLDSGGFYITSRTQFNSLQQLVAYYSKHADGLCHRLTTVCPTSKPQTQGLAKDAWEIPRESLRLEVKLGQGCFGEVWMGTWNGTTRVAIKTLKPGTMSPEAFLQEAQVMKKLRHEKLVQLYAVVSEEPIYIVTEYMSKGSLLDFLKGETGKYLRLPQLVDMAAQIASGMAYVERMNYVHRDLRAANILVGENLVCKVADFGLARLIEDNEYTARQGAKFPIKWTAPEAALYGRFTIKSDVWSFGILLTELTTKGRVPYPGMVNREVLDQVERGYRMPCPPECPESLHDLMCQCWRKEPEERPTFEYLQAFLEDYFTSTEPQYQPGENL
- Assay text: cell-free Src enzymatic assay
- Particulars: calculated from ID50; triplicate, mean values; read-out: Ki toward recombinant human Src
Reported property: pKi
Numbers only, as −log10 of the molar value.

Solved entries (count: 3):
[
  {
    "Compound": "Fc1ccc(CNc2ncnc3c2cnn3CC(Cl)c2ccc(Cl)cc2)cc1 (centres unmarked) [S-29]",
    "Experimental target": "recombinant human Src (Homo sapiens)",
    "Measured number": 6.30
  },
  {
    "Compound": "CSc1nc(Nc2cccc(Cl)c2)c2cnn(CC(Cl)c3ccccc3)c2n1 (centres unmarked) [SI-83]",
    "Experimental target": "recombinant human Src (Homo sapiens)",
    "Measured number": 6.22
  },
  {
    "Compound": "CSc1nc(Nc2cccc(Br)c2)c2cnn(CC(Cl)c3ccccc3)c2n1 (centres unmarked) [SI-91]",
    "Experimental target": "recombinant human Src (Homo sapiens)",
    "Measured number": 5.74
  }
]

Each of the following entries comes with a recorded value; kindly state pKi for each.
1. CCSc1nc(Nc2cccc(Cl)c2)c2cnn(CC(Cl)c3ccccc3)c2n1 (centres unmarked) [SI-96]
2. Clc1cccc(Nc2nc(SC3CCCCC3)nc3c2cnn3CC(Cl)c2ccccc2)c1 (centres unmarked) [SI-153]

Return:
[6.30, 6.15]
